B1: mRNA-splicing (parent)
chain: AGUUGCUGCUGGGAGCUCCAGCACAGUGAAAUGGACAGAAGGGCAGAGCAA

# Variants of: B1
# Method notes: exon inclusion enrichment index; higher = more inclusion; WT1 exon 5 minigene, HEK293
Label n if exon inclusion enrichment index falls below 0.7; label y in every other case.

>>> answer_label("AGUUAGGGAAAGGAGCUCCAGCACAGUGAAAUGGACAGAAGGGCAGAGCAA [G5A C6G U7G C9A U10A G11A]")
"n"
>>> answer_label("AGUUCUUCUUGGGAGCUCCAGCACAGUGAAAUGGACAGAAGGGCAGAGCAA [G5C C6U G8C C9U]")
"y"
>>> answer_label("AGUUACCUAUGGGAGCUCCAGCACAGUGAAAUGGACAGAAGGGCAGAGCAA [G5A U7C G8U C9A]")
"n"
>>> answer_label("AGUUCGCGCCGGGAGCUCCAGCACAGUGAAAUGGACAGAAGAACAGAGCAA [G5C C6G U7C U10C G42A G43A]")
"y"
>>> answer_label("AGUUUCUUUUGGGAGCUCCAGCACAGUGAAAUGGACAAGAGGGCAGAGCAA [G5U G8U C9U G38A A39G]")
"n"
>>> answer_label("AGUUCACACAGGGAGCUACAGCACAGUGAAAUGGACAGAAGGGCAGAGCAA [G5C C6A U7C G8A U10A C18A]")
"n"
>>> answer_label("AGUUAUAUAUGGGAGUGCCAGCACAGUGAAAUGGACAGAAGGGCAGAGCAA [G5A C6U U7A G8U C9A C16U U17G]")
"n"
>>> answer_label("AGUUAGGGAUGGGAGCUCCAGCACAGUGAAAUGGACAGAAGGGCUCAGCAA [G5A C6G U7G C9A A45U G46C]")
"n"
>>> answer_label("AGUUGAAGAAGGGAGCUAGAGCACAGUGAAAUGGACAGAAGGGCAGAGCAA [C6A U7A C9A U10A C18A C19G]")
"n"
>>> answer_label("AGUUCGCGCCGGGAGCUCAAGCACAGUGAAAUGGACAGAAGGGCAGAGCAA [G5C C6G U7C U10C C19A]")
"y"
>>> answer_label("AGUUGCUGCUGGGAAGUCCAGCACAGUGAAAUGGACAGAAGGGCAGAGCAA [G15A C16G]")
"n"
>>> answer_label("AGUUCUUCUCGGGAGCUCCAGCACAGUGAAAUGGACAGUAGGGCAGAGCAA [G5C C6U G8C C9U U10C A39U]")
"n"
>>> answer_label("AGUUCACACAGGGAGCUCCAGCACAGUGAAACAGACAGAAGGGCAGAGCAA [G5C C6A U7C G8A U10A U32C G33A]")
"n"
>>> answer_label("AGUUGCUGCAAGGAGCUCCAGCACAGUGAAAUGGACAGAAGGGCAGAGCAA [U10A G11A]")
"y"
>>> answer_label("AGUUGCUGCUGGGAGCUCCAGCACAGUGAAAUGGACUGAAGGGCAGAGCAA [A37U]")
"n"
>>> answer_label("AGUUCUUCUCGGGAGCUCCAGCACAGAAAAAUGGACAGAAGGGCAGAGCAA [G5C C6U G8C C9U U10C U27A G28A]")
"y"
>>> answer_label("AGUUUCUUUUGGGAGCUCCAGCAUGGUGAAAUGGACAGAAGGGCAGAGCAA [G5U G8U C9U C24U A25G]")
"n"
>>> answer_label("AGUUUCUUUUGGGAGCUCCAGAUCAGUGAAAUGGACAGAAGGGCAGAGCAA [G5U G8U C9U C22A A23U]")
"n"
>>> answer_label("AGUUGAAGAAGGGAGCUCCAGCACUGUGAAAUGGACAGAAGGGCAGAGCAA [C6A U7A C9A U10A A25U]")
"y"
>>> answer_label("AGUUGCUGCUGGGAGCUUUAGCACAGUGAAAUGGACAGAAGGGCAGAGCAA [C18U C19U]")
"n"
>>> answer_label("AGUUGACGACGGGAGCUCCAGCAUCGUGAAAUGGACAGAAGGGCAGAGCAA [C6A U7C C9A U10C C24U A25C]")
"y"
>>> answer_label("AGUUAUAUAUGGGAGAGCCAGCACAGUGAAAUGGACAGAAGGGCAGAGCAA [G5A C6U U7A G8U C9A C16A U17G]")
"n"
>>> answer_label("AGUUGCUGCUGGGAGCUCCAGCAAGGUGAAAUGGACAGAAGGGCAGAGCAA [C24A A25G]")
"n"
>>> answer_label("AGUUGCUGCUGGGAGCUCCAGCACAGUAGAAUGGACAGAAGGGCAGAGCAA [G28A A29G]")
"n"
>>> answer_label("AGUUAUAUAUGGGAGCUCCAGCAGAGUGAAAUGGACAGAAGGGCAGAGCAA [G5A C6U U7A G8U C9A C24G]")
"n"
>>> answer_label("AGUUCUUGUCGGGAGCUCCAGCACAGUGAAAUGGACAGAAGGGCAGAGCAA [G5C C6U C9U U10C]")
"y"
>>> answer_label("AGUUGACGACGGGAGCUCCAGCACAGUGAAAUGGACCAAAGGGCAGAGCAA [C6A U7C C9A U10C A37C G38A]")
"y"
>>> answer_label("AGUUAUAUAUGGGAAGUCCAGCACAGUGAAAUGGACAGAAGGGCAGAGCAA [G5A C6U U7A G8U C9A G15A C16G]")
"n"
>>> answer_label("AGUUGACGACGGGAGCUCCAGCACAGUGAAAUGGACAUUAGGGCAGAGCAA [C6A U7C C9A U10C G38U A39U]")
"n"
>>> answer_label("AAAUAUAUAUGGGAGCUCCAGCACAGUGAAAUGGACAGAAGGGCAGAGCAA [G2A U3A G5A C6U U7A G8U C9A]")
"n"
>>> answer_label("AGUUGAAGAAGGGAGCUCCAGCACAGUGAAAUUGACAGAAGGGCAGAGCAA [C6A U7A C9A U10A G33U]")
"n"
>>> answer_label("AGUUAGGGAUGGGAGCUCCAGCACAGUGAAAUGGACAGAAGGUUAGAGCAA [G5A C6G U7G C9A G43U C44U]")
"n"
>>> answer_label("AGUUACCGUCGGGAGCUCCAGCACAGUGAAAUGGACAGAAGGGCAGAGCAA [G5A U7C C9U U10C]")
"y"
>>> answer_label("AGUGCCCACCGGGAGCUCCAGCACAGUGAAAUGGACAGAAGGGCAGAGCAA [U4G G5C U7C G8A U10C]")
"y"
>>> answer_label("AGUUCGCGCCGGGAGUGCCAGCACAGUGAAAUGGACAGAAGGGCAGAGCAA [G5C C6G U7C U10C C16U U17G]")
"y"
>>> answer_label("AGUUGCUGCUGAGAGCUCCAGCACAGUGAAAUGGACAGAAGGGCAGAGCAA [G12A]")
"y"
>>> answer_label("AGUUAGGGAUGGGAGCUCCAGCACAGUGAAAUGGACAGAAGGGCACAGCAA [G5A C6G U7G C9A G46C]")
"n"
>>> answer_label("AGUUAUAUAUGGGAGCUCCAGUGCAGUGAAAUGGACAGAAGGGCAGAGCAA [G5A C6U U7A G8U C9A C22U A23G]")
"n"
>>> answer_label("AGUUUCUUUUGGGAGCUCGUGCACAGUGAAAUGGACAGAAGGGCAGAGCAA [G5U G8U C9U C19G A20U]")
"n"
>>> answer_label("AGUUAUAUAUGGGAGCUCCAGCACAACGAAAUGGACAGAAGGGCAGAGCAA [G5A C6U U7A G8U C9A G26A U27C]")
"n"
